assay target: MAP kinase-interacting serine/threonine-protein kinase 1 (Homo sapiens) (UniProt Q9BUB5)
Sequence (Q9BUB5 whole entry, looked up): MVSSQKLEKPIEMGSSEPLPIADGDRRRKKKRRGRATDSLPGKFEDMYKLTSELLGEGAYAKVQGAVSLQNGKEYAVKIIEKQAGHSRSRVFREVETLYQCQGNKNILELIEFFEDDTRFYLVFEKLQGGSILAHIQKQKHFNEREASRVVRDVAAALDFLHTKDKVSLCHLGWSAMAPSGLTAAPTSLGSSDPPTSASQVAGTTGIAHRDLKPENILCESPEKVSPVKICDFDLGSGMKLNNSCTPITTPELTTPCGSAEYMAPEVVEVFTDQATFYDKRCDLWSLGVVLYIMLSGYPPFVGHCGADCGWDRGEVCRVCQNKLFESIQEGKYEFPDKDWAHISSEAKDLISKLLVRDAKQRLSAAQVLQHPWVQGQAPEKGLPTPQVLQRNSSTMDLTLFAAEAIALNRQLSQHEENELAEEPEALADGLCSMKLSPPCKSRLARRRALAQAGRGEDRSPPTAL
protocol conditions: at 0.1 µM
Description: GSK_PKIS: MKNK1 mean inhibition at 0.1 uM [Nanosyn]
endpoint name: inhibition (%)
Number only, in %; omit the unit.

Ask: Entry NS(=O)(=O)c1cccc(-c2ccc3c(NC(=O)C4CC4)n[nH]c3c2)c1 , system MAP kinase-interacting serine/threonine-protein kinase 1 (Homo sapiens) (UniProt Q9BUB5): what inhibition was measured?
Result: -0.26

Ask: Find the measured inhibition: item CCn1c(-c2nonc2N)nc2cnc(Oc3cccc(NC(=O)c4ccc(OCCN5CCOCC5)cc4)c3)cc21 , target or system MAP kinase-interacting serine/threonine-protein kinase 1 (Homo sapiens) (UniProt Q9BUB5).
Result: 3.45

Ask: What reported inhibition corresponds to Fc1cccc(COc2ccc(Nc3ncnc4cc(-c5ccc[nH]5)sc34)cc2Cl)c1 on MAP kinase-interacting serine/threonine-protein kinase 1 (Homo sapiens) (UniProt Q9BUB5)?
Result: 1

Ask: I'm curious: which inhibition was measured for COc1cc(C=NNc2ncnc3c2cnn3-c2ccccc2)ccc1O tested on MAP kinase-interacting serine/threonine-protein kinase 1 (Homo sapiens) (UniProt Q9BUB5)?
Result: 12.1

Ask: GET /values?readout=inhibition&system=MAP kinase-interacting serine/threonine-protein kinase 1 (Homo sapiens) (UniProt Q9BUB5)&item= Cc1nnc(-c2ccc(C)c(-c3ccc(C(=O)Nc4cccc(C#N)c4)cc3)c2)o1
Result: 1.54

Ask: API: value(readout=inhibition, system=MAP kinase-interacting serine/threonine-protein kinase 1 (Homo sapiens) (UniProt Q9BUB5)) for record COc1cc2ncn(-c3cc(O[C@H](C)c4ccccc4Cl)c(C(N)=O)s3)c2cc1OC
Result: 3.54

Ask: Entry O=C1NC(=O)C(c2ccc(Cl)cc2)=C1Nc1ccc(Cl)c(C(=O)O)c1 , system MAP kinase-interacting serine/threonine-protein kinase 1 (Homo sapiens) (UniProt Q9BUB5): what inhibition was measured?
Result: -0.24

Ask: Could you share what inhibition was measured for Cn1cc(C=C2C(=O)Nc3cccnc32)c2ccccc21 , tested on MAP kinase-interacting serine/threonine-protein kinase 1 (Homo sapiens) (UniProt Q9BUB5)?
Result: 3.06

Ask: Record lookup: for MAP kinase-interacting serine/threonine-protein kinase 1 (Homo sapiens) (UniProt Q9BUB5), what inhibition belongs to COc1cc2ncn(-c3cc(OCc4ccccc4Cl)c(C(N)=O)s3)c2cc1OC ?
Result: 0.61

Ask: What reported inhibition corresponds to COc1ccc(COc2ccc(Cc3cnc(N)nc3N)cc2OC)cc1 on MAP kinase-interacting serine/threonine-protein kinase 1 (Homo sapiens) (UniProt Q9BUB5)?
Result: 10.8

Ask: Give the reported inhibition for [O-][S+]1CCN(Cc2ccc(-c3ccc4ncnc(Nc5ccc(OCc6ccccc6)c(F)c5)c4c3)o2)CC1 (system: MAP kinase-interacting serine/threonine-protein kinase 1 (Homo sapiens) (UniProt Q9BUB5)).
Result: 2.24

Ask: Lab note: need inhibition for COC(=O)Nc1nc2cc(Oc3ccc(NC(=O)Nc4cccc(C(=O)O)c4)cc3)ccc2[nH]1 on MAP kinase-interacting serine/threonine-protein kinase 1 (Homo sapiens) (UniProt Q9BUB5), anyone have it?
Result: -0.48

Ask: Fill in the recorded inhibition for this compound, with MAP kinase-interacting serine/threonine-protein kinase 1 (Homo sapiens) (UniProt Q9BUB5) as test system: COc1ccccc1Nc1ncc(-c2ccccc2)o1
Result: 4.22

Ask: Request - read-out inhibition | tested on MAP kinase-interacting serine/threonine-protein kinase 1 (Homo sapiens) (UniProt Q9BUB5) | compound COc1ccc(-c2coc3ncnc(N)c23)cc1
Result: 2.45

Ask: Request: inhibition, test system MAP kinase-interacting serine/threonine-protein kinase 1 (Homo sapiens) (UniProt Q9BUB5), entry O=C1NC(=O)C(c2ccccc2Cl)=C1Nc1cccc(O)c1
Result: 0.62

Ask: Report inhibition for NCc1ccc(-c2nc(-c3ccc(Cl)c(O)c3)c(-c3ccncc3)[nH]2)cc1 tested on MAP kinase-interacting serine/threonine-protein kinase 1 (Homo sapiens) (UniProt Q9BUB5).
Result: -2.18

Ask: Form field - read-out: inhibition; system: MAP kinase-interacting serine/threonine-protein kinase 1 (Homo sapiens) (UniProt Q9BUB5); submitted item: CNC(=O)c1cncc(/C=C/c2c(Cl)cccc2Cl)c1
Result: 1.63

Ask: Record lookup: for MAP kinase-interacting serine/threonine-protein kinase 1 (Homo sapiens) (UniProt Q9BUB5), what inhibition belongs to CCn1c(-c2nonc2N)nc2c(C#CC(C)(C)O)nc(OC[C@@H](N)c3ccccc3)cc21 ?
Result: -0.06

Ask: Lab note: need inhibition for CCN1CCC(CC(=O)Nc2n[nH]c3nc(-c4cccs4)c(Br)cc23)CC1 on MAP kinase-interacting serine/threonine-protein kinase 1 (Homo sapiens) (UniProt Q9BUB5), anyone have it?
Result: 42

Ask: What value of inhibition on MAP kinase-interacting serine/threonine-protein kinase 1 (Homo sapiens) (UniProt Q9BUB5) does CS(=O)(=O)CCN(CC#N)Cc1ccc(-c2ccc3ncnc(Nc4ccc(OCc5cccc(F)c5)c(Cl)c4)c3c2)o1 have?
Result: 1.32

Ask: Identify the measured inhibition of CN1CCC(C(=O)Nc2n[nH]c3nnc(-c4ccccc4)cc23)CC1 for MAP kinase-interacting serine/threonine-protein kinase 1 (Homo sapiens) (UniProt Q9BUB5).
Result: 6.32
